Kindly state self-cleavage for each of the entries shown.
B1: Twister Ribozyme (parent)
chain: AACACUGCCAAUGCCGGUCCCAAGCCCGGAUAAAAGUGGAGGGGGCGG

Variants of: B1
measurement_description: self-cleavage, relative activity (ratio to wild type); higher = more cleavage; co-transcriptional
Give bare numbers.

AACAUUGCCAAUGCCGGUCCCAAGCCCGGGUAAAAGUGGAGGGGGCGG : 0.784
AACACUGCCAAUGCCGGUCCCAAGCCCGGAUAGUAGUGGAGGGGGCGG : 0.461
AACACUGCCAAUGCCGGUCCCAAGCCCGGCUCAAAGUGGAGGGGGCGG : 0.758
AACACUGCCAAUACCGGUCCCAAGCCCGGAUAAAAGUGGAGUGGGCGG : 0.191
AACACUGCCAAUCCCGGUCCCAAGCCCGGAUAAAAGUGGAGGAGGCGG : 0.0854
AACACUGCCAAUACCGGUCCUAAGCCCGGAUAAAAGUGGAGGGGGCGG : 0.0803

Would you mind giving self-cleavage for every variant in the list below?
1. AACACUGCCAAUGCCGGUCCCAAGCCCGGAUAUAAGUGGAGGGGGCGU
2. AACACUGCCAAUGCCGGUCCCAAGCCAGGACAAAAGUGGAGGGGGCGG

0.931
0.495
